Molecular target: full length human TREX1 (Homo sapiens)
Construct: N-terminally His-Tev tagged full length human TREX1; made in house; host or cells: E. coli
Sequence (Q9NSU2 1-314): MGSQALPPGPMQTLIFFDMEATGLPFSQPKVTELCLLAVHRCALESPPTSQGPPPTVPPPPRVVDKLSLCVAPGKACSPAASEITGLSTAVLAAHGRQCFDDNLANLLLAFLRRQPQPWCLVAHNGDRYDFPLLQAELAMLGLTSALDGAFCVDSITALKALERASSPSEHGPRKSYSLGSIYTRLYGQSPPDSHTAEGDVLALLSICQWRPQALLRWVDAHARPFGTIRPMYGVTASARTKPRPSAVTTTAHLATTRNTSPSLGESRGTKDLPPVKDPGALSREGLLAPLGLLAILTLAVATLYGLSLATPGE
Assay: hTREX1 Biochemical Assay (fluorescence, dsDNA substrate degradation)
Conditions: biochemical, read-out: hTREX1 IC50
Entries and their IC50 values follow.

Observe how each entry below is paired with its result.
- Compound: "COCCn1cc(C(c2cc(F)ccc2C#N)C(C)c2nc(C(=O)Nc3cnoc3)c(O)c(=O)n2C)c(C)n1 (single isomer, unassigned) [Example 103 D2E2]"
  IC50: "> 10 nM"
- Compound: "COCCn1cc(C(c2cc(F)ccc2C#N)C(C)c2nc(C(=O)Nc3cnoc3)c(O)c(=O)n2C)cn1 (single isomer, unassigned) [Example 18 D1E2]"
  IC50: "< 1 nM"
- Compound: "CC(c1nc(C(=O)Nc2cnoc2)c(O)c(=O)n1C)C(c1cnn(CC(F)(F)F)c1)c1ccccc1C#N (single isomer, unassigned) [Example 22 D2E2]"
  IC50: "> 10 nM"
- Compound: "CC(c1nc(C(=O)Nc2cnoc2)c(O)c(=O)n1C)C(c1cnn(CCN2CCOCC2)c1)c1ccccc1C#N (single isomer, unassigned) [Example 20 D2E1]"
  IC50: "> 10 nM"
- Compound: "COCCn1ncc(C(c2cc(F)ccc2Cl)C(C)c2nc(C(=O)Nc3cnoc3)c(O)c(=O)n2C)c1C (single isomer, unassigned) [Example 108 D1E1]"
  IC50: "1 to 10 nM"

Value of IC50 reported for the compound CC(c1nc(C(=O)Nc2cnoc2)c(O)c(=O)n1C)C(c1cocn1)c1ccccc1C#N (single isomer, unassigned) [Example 50 D1E2] is > 10 nM

* * *

Molecular target: full length human TREX1 (Homo sapiens)
Construct: N-terminally His-Tev tagged full length human TREX1; made in house; host or cells: E. coli
Experiment: hTREX1 Biochemical Assay (fluorescence, dsDNA substrate degradation)
Settings: biochemical, read-out: hTREX1 IC50
pIC50: −log10 of the molar value.
Each record here notes measured pIC50.

- Compound: "Cc1cnc(C(c2cc(F)ccc2C#N)C(C)c2nc(C(=O)Nc3cnoc3)c(O)c(=O)n2C)cn1 (single isomer, unassigned) [Example 115 D2E2]"
  Tested On: "full length human TREX1 (Homo sapiens)"
  pIC50: "8.00 to 9.00"
- Compound: "Cc1cnc(C(c2cc(F)ccc2C#N)C(C)c2nc(C(=O)Nc3cnoc3)c(O)c(=O)n2C)cn1 (single isomer, unassigned) [Example 115 D1E1]"
  Tested On: "full length human TREX1 (Homo sapiens)"
  pIC50: "< 8.00"
- Compound: "Cc1nccc(C(c2ccccc2C#N)C(C)c2nc(C(=O)Nc3cnoc3)c(O)c(=O)n2C)n1 (single isomer, unassigned) [Example 83 D1E2]"
  Tested On: "full length human TREX1 (Homo sapiens)"
  pIC50: "< 8.00"
- Compound: "Cc1nn(C)cc1C(c1ccccc1C#N)C(C)c1nc(C(=O)Nc2cnoc2)c(O)c(=O)n1C (single isomer, unassigned) [Example 3 D1E2]"
  Tested On: "full length human TREX1 (Homo sapiens)"
  pIC50: "< 8.00"
- Compound: "CC(c1nc(C(=O)Nc2cnoc2)c(O)c(=O)n1C)C(c1cnn(C)c1)c1cc(C(F)(F)F)ccc1C#N (single isomer, unassigned) [Example 29 D2E1]"
  Tested On: "full length human TREX1 (Homo sapiens)"
  pIC50: "< 8.00"

Now for another entry.
# compound Cc1cc(C(c2cc(F)ccc2Cl)C(C)c2nc(C(=O)Nc3cnoc3)c(O)c(=O)n2C)n(C)n1 (single isomer, unassigned) [Example 113 D2E1] ; its pIC50 = < 8.00
